- SUBJECT_OF_TEST: 5-hydroxytryptamine receptor 3A (Rattus norvegicus)
- Sequence (P35563 whole entry): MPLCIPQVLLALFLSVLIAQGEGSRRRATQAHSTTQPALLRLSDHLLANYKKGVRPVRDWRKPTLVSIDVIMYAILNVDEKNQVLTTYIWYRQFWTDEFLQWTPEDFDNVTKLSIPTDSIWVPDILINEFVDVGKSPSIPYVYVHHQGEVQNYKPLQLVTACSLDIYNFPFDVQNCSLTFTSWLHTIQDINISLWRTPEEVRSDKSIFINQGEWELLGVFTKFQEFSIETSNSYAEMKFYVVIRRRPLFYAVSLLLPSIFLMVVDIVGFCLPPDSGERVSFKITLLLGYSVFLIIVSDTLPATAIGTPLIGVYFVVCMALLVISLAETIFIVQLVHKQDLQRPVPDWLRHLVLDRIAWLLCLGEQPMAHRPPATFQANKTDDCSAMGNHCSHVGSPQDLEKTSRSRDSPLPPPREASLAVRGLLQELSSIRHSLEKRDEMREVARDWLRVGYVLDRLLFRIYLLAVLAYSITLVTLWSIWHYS
MEASURED_ENDPOINT: Ki

COC(=O)C1(c2ccc(C)cc2)CC1CN1CCC(O)(c2ccccc2)CC1 (stereo unspecified)
> 10 µM

----------
- Species: Rattus norvegicus
- EXPERIMENT: Increase in TG-2 expression in albino Wistar rat primary 14 DIV astroglial cell at 25 uM after 24 hrs by CLSM analysis
- Format: functional
The source made the active and inactive calls. No cut-off for these calls is given here.
MEASURED_ENDPOINT: Activity

CC[C@H]1C[C@H]2C[C@H]3c4[nH]c5ccc(OC)cc5c4CCN(C2)[C@@H]13
Active
CN(C)CCN(C)CCc1ccc(Cl)c(Cl)c1
Active
O=C(CCCN1CCC(O)(c2ccc(Cl)cc2)CC1)c1ccc(F)cc1
Active
COC(=O)C1(c2ccc(C)cc2)CC1CN1CCC(O)(c2ccccc2)CC1 (centres undefined)
Active
